- TARGET OR SYSTEM: T1, Human CD3eg linker (human)
- T1 construct: Single chain: CD3 epsilon and gamma subunits joined by a 29-mer linker, Flag-tag at the C-terminus; also called recombinant human CD3
- T1 chain: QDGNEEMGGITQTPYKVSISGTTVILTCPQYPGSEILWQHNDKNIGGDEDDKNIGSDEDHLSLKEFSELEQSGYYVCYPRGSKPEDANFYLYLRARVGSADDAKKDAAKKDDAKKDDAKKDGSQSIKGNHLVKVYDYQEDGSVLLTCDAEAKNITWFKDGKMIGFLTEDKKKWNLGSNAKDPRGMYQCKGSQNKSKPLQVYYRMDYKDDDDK
- MEASUREMENT NOTES: SPR Biacore T200, 25 C, Ab captured on anti-human Fc, antigen as analyte;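 also: Anti-Fc amine-coupled to a CM4 chip, recombinant human CD3 flowed over in 20 mM ACES buffer pH 7.4 with 150 mM NaCl and 0.05% Tween 20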
kon vs 80000 M⁻¹ s⁻¹: less than gives Condition met; not less than gives Condition not met.

- BINDER: "H2594L0581 (antibody, V domains shown, Dual-Ig, IgG; also called H2594L581; dBBDu183H2594/dBBDu072L0581) VH: QVQLVESGGGLVQPGRSLRLSCAASGFKFSNVWFHWVRQAPGKGLEWVAQIKDYYNAYAGYYHPSVKGRFTISRDDSKNSIYLQMNSLKTEDTAVYYCHYVHYAAASQLLPAEGVDAWGQGTTVTVSS VL: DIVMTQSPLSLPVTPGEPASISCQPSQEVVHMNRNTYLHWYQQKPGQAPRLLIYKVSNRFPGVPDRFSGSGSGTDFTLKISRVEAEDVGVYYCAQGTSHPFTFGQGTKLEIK"
  CATEGORY LABEL: "Condition not met"
- BINDER: "H183/L072 (antibody, V domains shown, Dual-Fab antibody (Dual-Ig), bivalent IgG; also called parental Dual-Fab H183L072; dBBDu183H/dBBDu072L) VH: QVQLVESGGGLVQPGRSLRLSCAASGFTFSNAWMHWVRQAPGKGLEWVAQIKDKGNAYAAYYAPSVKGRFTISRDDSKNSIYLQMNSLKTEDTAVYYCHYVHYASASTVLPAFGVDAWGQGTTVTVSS VL: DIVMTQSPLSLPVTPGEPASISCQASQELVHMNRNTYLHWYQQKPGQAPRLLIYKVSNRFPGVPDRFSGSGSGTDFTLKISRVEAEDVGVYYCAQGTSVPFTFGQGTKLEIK"
  CATEGORY LABEL: "Condition met"
- BINDER: "H1571L0581 (antibody, V domains shown, Dual-Ig, IgG; also called dBBDu183H1571/dBBDu072L0581) VH: QVQLVESGGGLVQPGRSLRLSCAASGFKFSNVWFHWVRQAPGKGLEWVAQIKDKYNAYATYYAPSVKGRFTISRDDSKNSIYLQMNSLKTEDTAVYYCHYVHYASASTLLPAFGVDAWGQGTTVTVSS VL: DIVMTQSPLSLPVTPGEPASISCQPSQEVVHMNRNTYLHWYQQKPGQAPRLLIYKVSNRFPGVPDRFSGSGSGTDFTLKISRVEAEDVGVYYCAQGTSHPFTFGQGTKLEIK"
  CATEGORY LABEL: "Condition not met"
- BINDER: "H1550L0918 (antibody, V domains shown, Dual-Ig, IgG; also called H1550L918; dBBDu183H1550/dBBDu072L0918) VH: QVQLVESGGGLVQPGRSLRLSCAASGFKFSNVWMHWVRQAPGKGLEWVAQIKDKYNAYAAYYAPSVKGRFTISRDDSKNSIYLQMNSLKTEDTAVYYCHYIHYASASTLLPAFGVDAWGQGTTVTVSS VL: DIVMTQSPLSLPVTPGEPASISCQPSQEVVHMNNVVYLHWYQQKPGQAPRLLIYKVSNRFPGVPDRFSGSGSGTDFTLKISRVEAEDVGVYYCAQGTSHPFTFGQGTKLEIK"
  CATEGORY LABEL: "Condition met"
- BINDER: "H1610L0939 (antibody, V domains shown, Dual-Ig, IgG; also called H1610L939; dBBDu183H1610/dBBDu072L0939) VH: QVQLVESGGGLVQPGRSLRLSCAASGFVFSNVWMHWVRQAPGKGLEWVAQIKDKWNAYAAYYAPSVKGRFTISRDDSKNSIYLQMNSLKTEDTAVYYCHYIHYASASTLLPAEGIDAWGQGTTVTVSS VL: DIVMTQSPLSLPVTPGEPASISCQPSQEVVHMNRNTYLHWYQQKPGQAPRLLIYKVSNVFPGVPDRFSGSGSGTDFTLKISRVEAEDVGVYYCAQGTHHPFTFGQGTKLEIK"
  CATEGORY LABEL: "Condition met"
